The origin of these recorded values is ChEMBL document CHEMBL1124345.

// reported Ratio per item
# Measured Target: Adenosine receptors; A1 & A2 (Rattus norvegicus) (UniProt P29276+P25099+P30543)
# Test Protocol: Selectivity for A2 and A1 receptors was evaluated
# Type: protein assay
Measurement Kind: Ratio

>>> df
                                   molecule                           measured_target  test_value
 0     CCCn1c(=O)c2cc3nc[nH]c3cc2n(CCC)c1=O  Adenosine receptors; A1 & A2 (Rattus norvegicus) (UniProt P29276+P25099+P30543)        10.7
 1         Cn1c(=O)c2c3nc[nH]c3ccc2n(C)c1=O  Adenosine receptors; A1 & A2 (Rattus norvegicus) (UniProt P29276+P25099+P30543)        1.34
 2         Cn1c(=O)c2cc3c(cc2n(C)c1=O)ncn3C  Adenosine receptors; A1 & A2 (Rattus norvegicus) (UniProt P29276+P25099+P30543)        1.99
 3         Cn1c(=O)c2c3c(ccc2n(C)c1=O)ncn3C  Adenosine receptors; A1 & A2 (Rattus norvegicus) (UniProt P29276+P25099+P30543)        1.23
 4   CCCCn1c(=O)c2cc3nc[nH]c3cc2n(CCCC)c1=O  Adenosine receptors; A1 & A2 (Rattus norvegicus) (UniProt P29276+P25099+P30543)         3.7
 5         Cn1c(=O)c2cc3ncn(C)c3cc2n(C)c1=O  Adenosine receptors; A1 & A2 (Rattus norvegicus) (UniProt P29276+P25099+P30543)         3.8
 6         Cn1c(=O)c2cc3nc[nH]c3cc2n(C)c1=O  Adenosine receptors; A1 & A2 (Rattus norvegicus) (UniProt P29276+P25099+P30543)         3.6
 7     CCCn1c(=O)c2c3nc[nH]c3ccc2n(CCC)c1=O  Adenosine receptors; A1 & A2 (Rattus norvegicus) (UniProt P29276+P25099+P30543)         2.7
 8  CC(C)Cn1c(=O)n(C)c(=O)c2cc3[nH]cnc3cc21  Adenosine receptors; A1 & A2 (Rattus norvegicus) (UniProt P29276+P25099+P30543)         3.9
 9  CC(C)Cn1c(=O)n(C)c(=O)c2c3nc[nH]c3ccc21  Adenosine receptors; A1 & A2 (Rattus norvegicus) (UniProt P29276+P25099+P30543)         2.3
10   CCCCn1c(=O)c2c3nc[nH]c3ccc2n(CCCC)c1=O  Adenosine receptors; A1 & A2 (Rattus norvegicus) (UniProt P29276+P25099+P30543)        11.2
